Documented inhibition at 30 min, 10 μM across a set of compounds
biological target: UniProt:P08684; experiment: CYP450 inhibition CDNA-CYP3A4-BQ; details: human, E. coli expressed CYP3A4, pH 7.4, probe BQ 60 μM
Sequence (P08684 whole entry): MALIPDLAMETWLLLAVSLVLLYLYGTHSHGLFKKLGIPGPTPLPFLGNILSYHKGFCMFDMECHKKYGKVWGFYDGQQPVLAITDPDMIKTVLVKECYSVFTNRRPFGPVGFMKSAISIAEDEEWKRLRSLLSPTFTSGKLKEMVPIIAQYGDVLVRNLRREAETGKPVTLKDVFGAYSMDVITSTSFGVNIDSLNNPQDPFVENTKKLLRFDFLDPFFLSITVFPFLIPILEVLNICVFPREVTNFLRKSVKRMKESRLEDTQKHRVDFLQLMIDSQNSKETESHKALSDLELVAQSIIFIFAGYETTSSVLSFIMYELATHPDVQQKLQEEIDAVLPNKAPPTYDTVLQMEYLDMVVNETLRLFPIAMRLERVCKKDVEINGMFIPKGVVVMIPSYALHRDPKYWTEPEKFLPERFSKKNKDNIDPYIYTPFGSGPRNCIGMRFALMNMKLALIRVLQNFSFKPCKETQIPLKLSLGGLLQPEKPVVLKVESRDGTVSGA
MEASUREMENT_NAME: inhibition at 30 min, 10 μM

INSERT INTO assay_data (entry_smiles, measurement_name, result) VALUES
  ('CC(C)CN(C[C@@H](O)[C@H](Cc1ccccc1)NC(=O)OCc1cncs1)C(=O)c1ccc2nc(N3CCCCC3)oc2c1', 'inhibition at 30 min, 10 μM', '80%'),
  ('C#CCN(C[C@@H](O)[C@H](Cc1ccccc1)NC(=O)OCc1cncs1)C(=O)c1ccc2nc(N(C)CC)oc2c1', 'inhibition at 30 min, 10 μM', '76%'),
  ('CC(C)CN(C[C@@H](O)[C@H](Cc1ccccc1)NC(=O)OCc1cncs1)C(=O)c1ccc2ncn(C)c2c1', 'inhibition at 30 min, 10 μM', '72%'),
  ('CCc1nc2ccc(C(=O)N(CC(C)C)C[C@@H](O)[C@H](Cc3ccccc3)NC(=O)OCc3cncs3)cc2o1', 'inhibition at 30 min, 10 μM', '77%'),
  ('CC(C)CN(C[C@@H](O)[C@H](Cc1ccccc1)NC(=O)OCc1cncs1)C(=O)c1ccc2nc(N)sc2c1', 'inhibition at 30 min, 10 μM', '85%'),
  ('Cc1nc2ccc(C(=O)N(CC(C)C)C[C@@H](O)[C@H](Cc3ccccc3)NC(=O)OCc3cncs3)cc2o1', 'inhibition at 30 min, 10 μM', '74%'),
  ('CCN(C[C@@H](O)[C@H](Cc1ccccc1)NC(=O)OCc1cncs1)C(=O)c1ccc2nc(N(C)CC)oc2c1', 'inhibition at 30 min, 10 μM', '77%'),
  ('CC(C)CN(C[C@@H](O)[C@H](Cc1ccccc1)NC(=O)OCc1cncs1)C(=O)c1ccc2nc(N3CCN(C)CC3)oc2c1', 'inhibition at 30 min, 10 μM', '79%'),
  ('CCN(C)c1nc2ccc(C(=O)N(CC(C)C)C[C@@H](O)[C@H](Cc3ccccc3)NC(=O)OCc3ccncc3)cc2o1', 'inhibition at 30 min, 10 μM', '71%'),
  ('CC(C)CN(C[C@@H](O)[C@H](Cc1ccccc1)NC(=O)OCc1cncs1)C(=O)c1ccc2nc(NCCN(C)C)oc2c1', 'inhibition at 30 min, 10 μM', '80%'),
  ('CC(C)CN(C[C@@H](O)[C@H](Cc1ccccc1)NC(=O)OCc1cncs1)C(=O)c1ccc2ncoc2c1', 'inhibition at 30 min, 10 μM', '76%');

* * *

experiment: Toxicity, mock-infected MT4 CMV-EGFP cells; type: cell-based, human; details: human, mock-infected MT4 CMV-EGFP cells; read-out: Toxicity MT4 (pCC50) (converted)
MEASUREMENT_NAME: CC50 at 3 days (µM)

INSERT INTO measurements (molecule, relation, readout_number) VALUES
  ('CCN(C)c1nc2ccc(C(=O)N(CC(C)C)C[C@@H](O)[C@H](Cc3cccnc3)NC(=O)OCc3cncs3)cc2o1 [Compound C54]', '>', 100),
  ('CCc1nc2ccc(C(=O)N(CC(C)C)C[C@@H](O)[C@H](Cc3ccccc3)NC(=O)OCc3cncs3)cc2o1 [Compound C39]', '>', 100),
  ('CC(C)CN(C[C@@H](O)[C@H](Cc1ccccc1)NC(=O)OCc1cncs1)C(=O)c1ccc2nc(C(C)C)oc2c1 [Compound C45]', '=', 42.7),
  ('CCN(C)c1nc2ccc(C(=O)N(CC(C)C)C[C@@H](O)[C@H](Cc3ccccc3)NC(=O)OCc3ccncc3)cc2o1 [Compound C10]', '=', 46.8);
